Where do these numbers come from? They come from the supplement of paper PMC9694430.

Kindly state thermal shift delta Tm for each of the entries shown.
System: LOC_OS01G60700-cb002
PROTOCOL: thermal shift delta Tm vs DMSO control; higher = stronger stabilization (binding);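 further: purified Escherichia coli-expressed rice kinase domain construct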
CONDITION LABEL: 12.5 µM; protein concentration 2 µM
Structures can show the parent of a compound that is named as a salt.
Phrase the answer as number then unit, nothing more needed.

In plain terms, CN1CCN(c2ccc3nc(-c4c(N)c5c(F)cccc5[nH]c4=O)[nH]c3c2)CC1 [Dovitinib (TKI-258, CHIR-258)] has a documented thermal shift delta Tm of 1.43 °C

In plain terms, COc1cc2c(Oc3ccc4[nH]c(C)cc4c3F)ncnc2cc1OCCCN1CCCC1 has a documented thermal shift delta Tm of 0.79 °C

In plain terms, COc1ccc(-c2cc3nccn3c(Nc3ncccc3C(N)=O)n2)cc1OC has a documented thermal shift delta Tm of 1.05 °C

In plain terms, O=C(Nc1cnn2ccc(N3CCC[C@@H]3c3cc(F)ccc3F)nc12)N1CC[C@H](O)C1 [Larotrectinib (LOXO-101) sulfate] has a documented thermal shift delta Tm of 0.28 °C

In plain terms, COc1cc(OC)c(C=C2C(=O)Nc3ccccc32)c(OC)c1 has a documented thermal shift delta Tm of 0.97 °C

In plain terms, Cc1c(CN2CCN(C(=O)[C@H](C)O)CC2)sc2c(N3CCOCC3)nc(-c3cnc(N)nc3)nc12 has a documented thermal shift delta Tm of 0.46 °C

In plain terms, CNC(=O)c1ccc(-c2cnc3ncc(Cc4ccc5ncccc5c4)n3n2)cc1F has a documented thermal shift delta Tm of 0.39 °C

In plain terms, Cc1n[nH]c2ncc(C(=O)N3CCC[C@H]3c3ccc(Cl)cc3)cc12 has a documented thermal shift delta Tm of 0.24 °C

* * *

Tested on: LOC_OS03G50450-cb001
PROTOCOL: thermal shift delta Tm vs DMSO control; higher = stronger stabilization (binding)
CONDITION LABEL: 12.5 µM; protein concentration 2 µM
Kindly state thermal shift delta Tm for each of the entries shown.
Please respond with the number in °C and leave the unit unwritten.

thermal shift delta Tm on LOC_OS03G50450-cb001 for C[C@@H](Oc1ccc2[nH]nc(/C=C/c3cnn(CCO)c3)c2c1)c1c(Cl)cncc1Cl is 6.65

thermal shift delta Tm on LOC_OS03G50450-cb001 for CC(C)(O)CC(=O)NCCn1ccc2ncnc(Nc3ccc(Oc4cccc(C(F)(F)F)c4)c(Cl)c3)c21 is 0.94

thermal shift delta Tm on LOC_OS03G50450-cb001 for COc1cc(Nc2c(C#N)cnc3cc(OCCCN4CCN(C)CC4)c(OC)cc23)c(Cl)cc1Cl [Bosutinib (SKI-606)] is -0.11

thermal shift delta Tm on LOC_OS03G50450-cb001 for Cc1cc(Nc2cc(Cl)nc(Oc3ccc([N+](=O)[O-])cc3)n2)n[nH]1 is 0.75

thermal shift delta Tm on LOC_OS03G50450-cb001 for Nc1ncnc2n[nH]c(Nc3ccc(F)cc3)c12 is 0.1

thermal shift delta Tm on LOC_OS03G50450-cb001 for O=C(O)c1ccc2c3c1cccc3c(=O)n1c3ccccc3nc21 is 0.23

thermal shift delta Tm on LOC_OS03G50450-cb001 for O=C(NOC[C@H](O)CO)c1ccc(F)c(F)c1Nc1ccc(I)cc1F is 0.26

thermal shift delta Tm on LOC_OS03G50450-cb001 for Cc1cc(C(C)Nc2ccccc2)c2nc(N3CCOCC3)cc(=O)n2c1 (stereo not given) is 0.33

thermal shift delta Tm on LOC_OS03G50450-cb001 for O=C(Nc1ccc(-c2ccnc(Nc3ccc(N4CCOCC4)cc3)n2)cc1)C1CCCN1 (stereo not given) is 0.37

thermal shift delta Tm on LOC_OS03G50450-cb001 for CCC(=O)Nc1cccc(Oc2nc(Nc3ccc(N4CCN(C)CC4)cc3OC)ncc2Cl)c1 is 0.69

thermal shift delta Tm on LOC_OS03G50450-cb001 for COc1ccc(/C=C/C(=O)C2(C(=O)/C=C/c3ccc(OC)c(OC)c3)CCCCC2)cc1OC is 0.8

thermal shift delta Tm on LOC_OS03G50450-cb001 for O=c1c(O)c(-c2ccc(O)c(O)c2)oc2cc(O)cc(O)c12 is 2.18

thermal shift delta Tm on LOC_OS03G50450-cb001 for CO[C@H]1C[C@@H]2CC[C@@H](C)[C@@](O)(O2)C(=O)C(=O)N2CCCC[C@H]2C(=O)O[C@H]([C@H](C)C[C@@H]2CC[C@@H](O)[C@H](OC)C2)CC(=O)[C@H](C)/C=C(\C)[C@@H](O)[C@@H](OC)C(=O)[C@H](C)C[C@H](C)/C=C/C=C/C=C/1C [Rapamycin (Sirolimus)] is 0.2

thermal shift delta Tm on LOC_OS03G50450-cb001 for OC1CCC(Oc2cccc3cnc(Nc4ccc5nc[nH]c5c4)nc23)CC1 (stereo not given) is 7.93

thermal shift delta Tm on LOC_OS03G50450-cb001 for C#Cc1cccc(Nc2ncnc3cc(OC)c(OCCCCCCC(=O)NO)cc23)c1 is 0.09

thermal shift delta Tm on LOC_OS03G50450-cb001 for O=C1NC(=O)C(=Cc2ccc(-c3ccc(F)cc3)o2)S1 (stereo in doubt) is 0.23

thermal shift delta Tm on LOC_OS03G50450-cb001 for OC(c1cc(-c2ccc(Cl)cc2)nc2ccccc12)C1CCCCN1 (stereo not given) is 1.11

thermal shift delta Tm on LOC_OS03G50450-cb001 for COc1cc2ncnc(Oc3cccc(NC(=O)Nc4cc(C(C)(C)C(F)(F)F)on4)c3)c2cc1OC is 0.59

thermal shift delta Tm on LOC_OS03G50450-cb001 for CNc1nc(Nc2cnn([C@H]3CCN(C4COC4)C[C@@H]3F)c2Cl)ncc1C(F)(F)F is 5.54

thermal shift delta Tm on LOC_OS03G50450-cb001 for Cc1nc(NC(=O)N2CCC[C@H]2C(N)=O)sc1-c1ccnc(C(C)(C)C(F)(F)F)c1 is 0.38

thermal shift delta Tm on LOC_OS03G50450-cb001 for C=CC(=O)N1CCC(Oc2cc3c(Nc4ccc(Cl)c(Cl)c4F)ncnc3cc2OC)CC1 [Poziotinib (HM781-36B)] is 1.57

thermal shift delta Tm on LOC_OS03G50450-cb001 for NC(=O)c1ncn([C@@H]2O[C@H](CO)[C@@H](O)[C@H]2O)c1N is 0.66

thermal shift delta Tm on LOC_OS03G50450-cb001 for CCN1/C(=C/C(C)=O)Sc2ccc(OC)cc21 is 0.66

thermal shift delta Tm on LOC_OS03G50450-cb001 for OC1CCC(Nc2ncc3nc(Nc4c(F)cc(F)cc4F)n([C@H]4CCOC4)c3n2)CC1 (stereo not given in full) is 0.44

thermal shift delta Tm on LOC_OS03G50450-cb001 for CCCCNc1ncc(-c2ccc(CN3CCOCC3)cn2)c(NC2CCC(O)CC2)n1 (stereo not given) is 1.29

thermal shift delta Tm on LOC_OS03G50450-cb001 for C[C@@H](N)[C@H]1CC[C@H](C(=O)Nc2ccncc2)CC1 is 0.25

thermal shift delta Tm on LOC_OS03G50450-cb001 for CCn1c(N)c(C(=O)NC)c(=O)c2ccc(C#CC(C)(O)COC)nc21 (stereo not given) is 0.79

thermal shift delta Tm on LOC_OS03G50450-cb001 for CCOC(=O)c1cnc2ccc(-c3cncc(NS(=O)(=O)c4ccccc4)c3)cn12 is 0.7

thermal shift delta Tm on LOC_OS03G50450-cb001 for O=C(O)[C@]1(Cc2cccc(Nc3nccs3)n2)CC[C@@H](Oc2cccc(Cl)c2F)CC1 is 1.68

thermal shift delta Tm on LOC_OS03G50450-cb001 for COc1nccc(-c2c(-c3ccc(F)cc3)ncn2C2CCC(O)CC2)n1 (stereo not given) is 0.52

thermal shift delta Tm on LOC_OS03G50450-cb001 for CCn1cc(-c2ccnc3[nH]c(-c4cccc(CN(C)C)c4)cc23)c(-c2ccc(NC(=O)N(C)C)cc2)n1 is 0.98

thermal shift delta Tm on LOC_OS03G50450-cb001 for COc1cc(N2CCC(N(C)C)CC2)ccc1Nc1ncc(Cl)c(Nc2ccccc2P(C)(C)=O)n1 is 0.35

thermal shift delta Tm on LOC_OS03G50450-cb001 for CNS(=O)(=O)C[C@H]1CC[C@H](N(C)c2[nH]cnc3nccc2-3)CC1 is 1.35

thermal shift delta Tm on LOC_OS03G50450-cb001 for Cc1cc2c(F)c(Oc3ncnn4cc(OC[C@@H](C)O)c(C)c34)ccc2[nH]1 is 0.21

thermal shift delta Tm on LOC_OS03G50450-cb001 for CC(C)(C)c1cc(NC(=O)Nc2ccc(Oc3ccnc4[nH]c(=O)cnc34)cc2F)n(-c2ccccc2)n1 is 0.17
